Data provenance: paper PMC9884089

Biological target: PARP2 (Homo sapiens)
Construct: made in house
Sequence (Q9UGN5 whole entry): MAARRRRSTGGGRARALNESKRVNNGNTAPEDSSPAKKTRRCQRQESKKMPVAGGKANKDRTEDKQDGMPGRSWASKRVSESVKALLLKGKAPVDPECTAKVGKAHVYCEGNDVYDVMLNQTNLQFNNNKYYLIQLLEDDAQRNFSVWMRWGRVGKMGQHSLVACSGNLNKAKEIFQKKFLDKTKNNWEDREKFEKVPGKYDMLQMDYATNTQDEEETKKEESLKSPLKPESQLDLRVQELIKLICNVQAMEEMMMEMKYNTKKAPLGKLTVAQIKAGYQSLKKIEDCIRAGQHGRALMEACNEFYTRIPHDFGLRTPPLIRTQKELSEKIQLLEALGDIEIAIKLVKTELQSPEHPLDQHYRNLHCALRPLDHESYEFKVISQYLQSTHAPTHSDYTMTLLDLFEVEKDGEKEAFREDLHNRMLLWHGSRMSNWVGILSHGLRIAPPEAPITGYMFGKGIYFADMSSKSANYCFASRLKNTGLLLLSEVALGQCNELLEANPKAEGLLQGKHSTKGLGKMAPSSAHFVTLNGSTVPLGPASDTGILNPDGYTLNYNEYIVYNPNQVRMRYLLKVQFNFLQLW
Experiment: biochemical
Type: biochemical
Quantity Name: IC50 (µM)
Answers are plain numbers, in µM.

# IC50 (molecule: `COc1ccc(OC)c2c1sc1nnc(NC(=O)C(C)(C)C)n12` ) is 53

---

Molecular target: TNKS2 (Homo sapiens, UniProt Q9H2K2)
Sequence (Q9H2K2 whole entry): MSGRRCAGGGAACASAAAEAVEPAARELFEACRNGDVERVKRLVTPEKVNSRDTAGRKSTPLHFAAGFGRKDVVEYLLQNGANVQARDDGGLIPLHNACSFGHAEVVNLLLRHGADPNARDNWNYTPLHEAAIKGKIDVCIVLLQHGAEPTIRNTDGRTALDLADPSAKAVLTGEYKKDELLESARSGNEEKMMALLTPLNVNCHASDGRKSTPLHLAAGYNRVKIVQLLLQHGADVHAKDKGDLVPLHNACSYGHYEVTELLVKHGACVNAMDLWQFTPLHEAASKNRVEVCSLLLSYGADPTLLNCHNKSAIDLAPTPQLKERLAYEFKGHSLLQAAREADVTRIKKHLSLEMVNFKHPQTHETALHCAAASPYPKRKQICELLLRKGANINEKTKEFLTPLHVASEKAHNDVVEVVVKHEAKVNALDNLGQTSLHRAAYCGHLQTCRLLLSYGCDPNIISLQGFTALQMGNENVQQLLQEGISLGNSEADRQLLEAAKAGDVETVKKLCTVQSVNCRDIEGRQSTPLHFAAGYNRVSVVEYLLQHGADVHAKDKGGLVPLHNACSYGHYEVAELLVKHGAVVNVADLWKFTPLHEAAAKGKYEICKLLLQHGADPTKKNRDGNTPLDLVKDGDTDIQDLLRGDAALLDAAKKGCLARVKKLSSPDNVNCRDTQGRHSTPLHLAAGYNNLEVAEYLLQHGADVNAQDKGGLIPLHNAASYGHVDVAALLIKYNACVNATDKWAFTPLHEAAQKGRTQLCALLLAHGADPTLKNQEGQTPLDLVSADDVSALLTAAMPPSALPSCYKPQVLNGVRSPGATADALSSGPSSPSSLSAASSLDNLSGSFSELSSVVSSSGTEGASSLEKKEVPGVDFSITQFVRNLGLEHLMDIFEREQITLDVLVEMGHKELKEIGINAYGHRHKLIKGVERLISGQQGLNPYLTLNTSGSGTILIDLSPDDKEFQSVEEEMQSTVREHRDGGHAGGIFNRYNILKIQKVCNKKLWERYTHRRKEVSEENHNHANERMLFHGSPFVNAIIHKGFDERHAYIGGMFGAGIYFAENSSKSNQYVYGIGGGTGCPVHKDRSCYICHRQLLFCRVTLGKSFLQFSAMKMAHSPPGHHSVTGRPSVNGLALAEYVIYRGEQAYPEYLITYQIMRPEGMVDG
Assay: biochemical
Conditions: read-out: TNKS2 IC50; > = less than 50% inhibition at highest concentration
For each of the compounds below, state its IC50.
One number for each entry, in µM.

Dear reader, for each entry below, please note its IC50.
1. COc1ccc(OC)c2c1sc1nnc(S)n12 [Compound 26]
2. COc1cc(OC)c2sc3nncn3c2c1 [Compound 15]
3. COc1cccc2c1sc1nncn12 [Compound 12]

[66, 7.6, 24]

Respectfully, I request IC50 for each entry included below.
1. Cc1ccc2c(c1)sc1nncn12 [Compound 1]
2. COc1ccc2sc3nncn3c2c1 [Compound 10]
3. COc1ccc(OC)c2c1sc1nnc(N)n12 [Compound 27]
4. Cc1ccc2c(c1)sc1nnc(N)n12 [Compound 21]
5. COc1cccc2sc3nncn3c12 [Compound 13]
6. COc1ccc2c(c1)sc1nncn12 [Compound 11]
7. Cc1ccc(F)c2c1sc1nncn12 [Compound 9]

1. 5.3
2. 1
3. 10
4. 5.7
5. 1
6. 5.5
7. 5.4

I'm hoping you can list IC50 for every compound here, please.
1. Oc1ccc(O)c2c1sc1nncn12 [Compound 18]
2. Clc1ccc2c(c1)sc1nncn12 [Compound 7]

3.1
10
